Molecular target: T1, AFP158/HLA-A*02:01 complex (human)
T1 construct: flowed as analyte in SPR
Experiment: SPR, crude scFv captured, pMHC analyte;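 also: pMHC analyte injected at three concentrations, association phase of one hundred seconds, then running buffer for dissociation, rates fitted from both curves, KD derived from the rates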
Measured kon by item
Write the value in M⁻¹ s⁻¹ as a bare number.

binder	result_number
AS170036 VL1VH1-56Y108A (scFv, also called 16-AS170036 VL1VH1-56Y108A) scFv: QSALTQPRSVSGSPGQSVTISCAGTSSDVGSENYVSWYQQHPGKAPKLMIYQVNKRASGVPDRFSGSKSGNTASLTISGLQAEDEADYYCASYRSSDHNIVFGGGTKLTVLGGGGSGGGGSGGGGSEVQLVESGGGLVQPGGSLRLSCAASGFTFSSYAMSWVRQAPGKGLEWVSTINSGTYSPYYADSVKGRFTISRDNSKNTLYLQMNSLRAEDTAVYYCAKNFFDGSWFLAPPAMDYWGQGTLVTVSSHHHHHH	200000

Ask: // kon lookup, key: AS170036 VL1VH1-56Y98Q (scFv, also called 03-AS170036 VL1VH1-56Y98Q) scFv: QSALTQPRSVSGSPGQSVTISCAGTSSDVGSENYVSWYQQHPGKAPKLMIYQVNKRASGVPDRFSGSKSGNTASLTISGLQAEDEADYYCASYRSSDQNIVFGGGTKLTVLGGGGSGGGGSGGGGSEVQLVESGGGLVQPGGSLRLSCAASGFTFSSYAMSWVRQAPGKGLEWVSTINSGTYSPYYADSVKGRFTISRDNSKNTLYLQMNSLRAEDTAVYYCAKNFFDGSWFLGPPAMDYWGQGTLVTVSSHHHHHH
Result: 190000

Origin of the recorded values: patent US20240279318A1
